- Species: Oryctolagus cuniculus
- protocol.summary: Inhibition of rabbit distal colon cyclooxygenase at 10 uM
parameter: inhibition (%)
Write the answer as a number in %, unit excluded.

# example entries with known answers
smiles.notation | unit.descriptor | val
COc1cc(OC)nc(Oc2ccc(F)cc2C(=O)c2ccc(C)cc2)n1 | % | 40
COc1cc(OC)nc(Oc2ccc(Br)cc2C(=O)c2ccc(Cl)cc2)n1 | % | 70
COc1cc(OC)nc(Oc2ccc(Cl)cc2C(=O)c2ccc(Cl)cc2)n1 | % | 20

Identify measured inhibition corresponding to CCCCC1C(=O)N(c2ccccc2)N(c2ccccc2)C1=O
89

Identify measured inhibition corresponding to CC(=O)Oc1ccccc1C(=O)O
99

Identify measured inhibition corresponding to COc1cc(OC)nc(Oc2ccc(C)cc2C(=O)c2ccc(C)cc2)n1
87
